experiment: Oral bioavailability in Sprague-Dawley rat at 10 mg/kg; format: ADME, organism-based; settings: in vivo
Attribute: bioavailability
Report only the number, with the unit % understood.

q: // query bioavailability value for entry CCOC(=O)C1=C[C@@H](OC(CC)CC)[C@H](NC(C)=O)[C@@H](N)C1.O=P(O)(O)O [OSELTAMIVIR PHOSPHATE]
a: 4.3

q: Next: `CC(=O)N[C@H]1[C@H]([C@H](O)[C@H](O)CO)OC(C(=O)NCc2cccc(F)c2)=C[C@@H]1NC(=N)N`
a: 1.41

---

molecular target: Neuraminidase (Influenza A virus); assay: Inhibition of Influenza A virus Mississippi/1/85(H3N2) neuraminidase
Sequence (B4URF0 whole entry): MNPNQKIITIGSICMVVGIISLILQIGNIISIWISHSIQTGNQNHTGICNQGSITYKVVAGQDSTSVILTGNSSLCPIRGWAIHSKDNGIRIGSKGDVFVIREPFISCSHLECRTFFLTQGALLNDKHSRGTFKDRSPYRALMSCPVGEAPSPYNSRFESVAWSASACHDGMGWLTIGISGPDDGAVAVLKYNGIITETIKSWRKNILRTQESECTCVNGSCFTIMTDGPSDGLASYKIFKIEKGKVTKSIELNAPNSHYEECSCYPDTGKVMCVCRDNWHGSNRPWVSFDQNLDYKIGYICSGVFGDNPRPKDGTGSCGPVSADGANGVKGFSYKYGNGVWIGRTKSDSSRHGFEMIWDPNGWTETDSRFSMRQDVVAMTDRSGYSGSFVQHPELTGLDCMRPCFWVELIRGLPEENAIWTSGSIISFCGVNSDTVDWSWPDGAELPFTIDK
MEASURE NAME: IC50 (µM)
Provide only the numeric value, understood in µM.

q: For Neuraminidase (Influenza A virus), provide IC50 of CC(=O)N[C@H]1[C@H]([C@H](O)[C@H](O)CO)OC(C(=O)O)=C[C@@H]1O [NEU5AC2EN] please.
a: 52
